I'd appreciate it if you could supply inhibition values for the items below.
# test_target: Proteinase-activated receptor 1 (Homo sapiens)
# protocol_notes: In vitro antagonist activity to inhibit human platelet aggregation (gel-filtered platelets) induced by human thrombin at a concentration of 50 uM
Bridge positions count the residues as written; N and C are the ends. Square brackets hold non-standard residues; d marks the D form. Peptide text beside a SMILES is read from it. Phe(3-F) = N[C@@H](Cc1cccc(F)c1)C(=O)O; GABA = NCCCC(=O)O; βAla = NCCC(=O)O
Give the quantity in %, number only.

Query string: Query inhibition on Proteinase-activated receptor 1 (Homo sapiens) for CC(C)C[C@@H]1NC(=O)[C@@H](NC(=O)[C@H](Cc2cccc(F)c2)NC(=O)CN)CCCCNC(=O)C[C@@H](C(N)=O)NC(=O)[C@H](CCCN=C(N)N)NC1=O (H-G[Phe(3-F)]KLRD-NH2; lactam 3-6)
Result string: 10

Query string: Query inhibition on Proteinase-activated receptor 1 (Homo sapiens) for `CC(C)C[C@@H]1NC(=O)[C@@H](NC(=O)[C@@H](CCc2ccccc2)NC(=O)CCCN)CCCCNC(=O)C[C@@H](C(N)=O)NC(=O)[C@H](CCCN=C(N)N)NC1=O`
Result string: 2

Query string: Query inhibition on Proteinase-activated receptor 1 (Homo sapiens) for CC(C)C[C@@H]1NC(=O)[C@@H](NC(=O)[C@H](Cc2cccc(F)c2)NC(=O)[C@@H](N)CO)CCCCNC(=O)C[C@@H](C(N)=O)NC(=O)[C@H](Cc2ccccc2)NC1=O (H-S[Phe(3-F)]KLFD-NH2; lactam 3-6)
Result string: 23

Query string: Query inhibition on Proteinase-activated receptor 1 (Homo sapiens) for `CC(C)C[C@@H]1NC(=O)[C@@H](NC(=O)[C@@H](CCc2ccccc2)NC(=O)CN)CCCCNC(=O)C[C@@H](C(N)=O)NC(=O)[C@H](CCCN=C(N)N)NC1=O`
Result string: 2

Query string: Query inhibition on Proteinase-activated receptor 1 (Homo sapiens) for `CC(C)C[C@@H]1NC(=O)[C@@H](NC(=O)[C@@H](CCc2ccccc2)NC(=O)CCN)CCCCNC(=O)C[C@@H](C(N)=O)NC(=O)[C@H](CCCN=C(N)N)NC1=O`
Result string: 1

Query string: Query inhibition on Proteinase-activated receptor 1 (Homo sapiens) for `CC(C)C[C@@H]1NC(=O)[C@@H](NC(=O)[C@@H](CCc2ccccc2)NC(=O)[C@@H](N)CO)CCCCNC(=O)C[C@@H](C(N)=O)NC(=O)[C@H](CCCN=C(N)N)NC1=O`
Result string: 5

Query string: Query inhibition on Proteinase-activated receptor 1 (Homo sapiens) for CC(C)C[C@@H]1NC(=O)[C@@H](NC(=O)[C@H](Cc2cccc(F)c2)NC(=O)CCN)CCCCNC(=O)C[C@@H](C(N)=O)NC(=O)[C@H](CCCN=C(N)N)NC1=O (H-[βAla][Phe(3-F)]KLRD-NH2; lactam 3-6)
Result string: 3

Query string: Query inhibition on Proteinase-activated receptor 1 (Homo sapiens) for CC(C)C[C@@H]1NC(=O)[C@@H](NC(=O)[C@H](Cc2cccc(F)c2)NC(=O)CCCN)CCCCNC(=O)C[C@@H](C(N)=O)NC(=O)[C@H](CCCN=C(N)N)NC1=O (H-[GABA][Phe(3-F)]KLRD-NH2; lactam 3-6)
Result string: 2

Query string: Query inhibition on Proteinase-activated receptor 1 (Homo sapiens) for `CC(C)C[C@@H]1NC(=O)[C@@H](NC(=O)[C@@H](CCc2ccccc2)NC(=O)CN)CCCCNC(=O)C[C@@H](C(N)=O)NC(=O)[C@H](Cc2ccccc2)NC1=O`
Result string: 1

Query string: Query inhibition on Proteinase-activated receptor 1 (Homo sapiens) for CC(C)C[C@@H]1NC(=O)[C@@H](NC(=O)[C@H](Cc2cccc(F)c2)NC(=O)[C@@H](N)CO)CCCCNC(=O)C[C@@H](C(N)=O)NC(=O)[C@H](CCCN=C(N)N)NC1=O (H-S[Phe(3-F)]KLRD-NH2; lactam 3-6)
Result string: 5

Query string: Query inhibition on Proteinase-activated receptor 1 (Homo sapiens) for `CC(C)C[C@@H]1NC(=O)[C@@H](NC(=O)[C@@H](CCc2ccccc2)NC(=O)CCN)CCCCNC(=O)C[C@@H](C(N)=O)NC(=O)[C@H](Cc2ccccc2)NC1=O`
Result string: 16

Query string: Query inhibition on Proteinase-activated receptor 1 (Homo sapiens) for CC(C)C[C@@H]1NC(=O)[C@@H](NC(=O)[C@H](Cc2cccc(F)c2)NC(=O)CCCN)CCCCNC(=O)C[C@@H](C(N)=O)NC(=O)[C@H](Cc2ccccc2)NC1=O (H-[GABA][Phe(3-F)]KLFD-NH2; lactam 3-6)
Result string: 27

Query string: Query inhibition on Proteinase-activated receptor 1 (Homo sapiens) for `CC(C)C[C@@H]1NC(=O)[C@@H](NC(=O)[C@@H](Cc2ccccc2)NC(=O)CCN)CCCCNC(=O)C[C@@H](C(N)=O)NC(=O)[C@H](Cc2ccccc2)NC1=O`
Result string: 11

Query string: Query inhibition on Proteinase-activated receptor 1 (Homo sapiens) for `CC(C)C[C@@H]1NC(=O)[C@@H](NC(=O)[C@@H](CCc2ccccc2)NC(=O)[C@@H](N)CO)CCCCNC(=O)C[C@@H](C(N)=O)NC(=O)[C@H](Cc2ccccc2)NC1=O`
Result string: 2

Query string: Query inhibition on Proteinase-activated receptor 1 (Homo sapiens) for CC(C)C[C@@H]1NC(=O)[C@@H](NC(=O)[C@H](Cc2ccccc2)NC(=O)CCN)CCCCNC(=O)C[C@@H](C(N)=O)NC(=O)[C@H](CCCN=C(N)N)NC1=O (H-[βAla]FKLRD-NH2; lactam 3-6)
Result string: 3

Query string: Query inhibition on Proteinase-activated receptor 1 (Homo sapiens) for CC(C)C[C@@H]1NC(=O)[C@@H](NC(=O)[C@H](Cc2ccccc2)NC(=O)[C@H](C)N)CCCCNC(=O)C[C@@H](C(N)=O)NC(=O)[C@H](CCCN=C(N)N)NC1=O (H-AFKLRD-NH2; lactam 3-6)
Result string: 2

Query string: Query inhibition on Proteinase-activated receptor 1 (Homo sapiens) for CC(C)C[C@@H]1NC(=O)[C@@H](NC(=O)[C@H](Cc2ccccc2)NC(=O)CCCN)CCCCNC(=O)C[C@@H](C(N)=O)NC(=O)[C@H](Cc2ccccc2)NC1=O (H-[GABA]FKLFD-NH2; lactam 3-6)
Result string: 14

Query string: Query inhibition on Proteinase-activated receptor 1 (Homo sapiens) for CC(C)C[C@@H]1NC(=O)[C@@H](NC(=O)[C@H](Cc2ccccc2)NC(=O)CN)CCCCNC(=O)C[C@@H](C(N)=O)NC(=O)[C@H](CCCN=C(N)N)NC1=O (H-GFKLRD-NH2; lactam 3-6)
Result string: 9

Query string: Query inhibition on Proteinase-activated receptor 1 (Homo sapiens) for CC(C)C[C@@H]1NC(=O)[C@@H](NC(=O)[C@H](Cc2cccc(F)c2)NC(=O)CN)CCCCNC(=O)C[C@@H](C(N)=O)NC(=O)[C@H](Cc2ccccc2)NC1=O (H-G[Phe(3-F)]KLFD-NH2; lactam 3-6)
Result string: 11
